- Tested on: K562;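 further: after 48 h exposure read by CellTiter-Glo luminescence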
- testProtocol: cell viability relative to vehicle control; higher = less cytotoxic
- conditionLabel: 10 µM; SRSF2 genotype: SRSF2 wt/wt
Structures can show the parent of a compound that is named as a salt.
Hi there, I'd appreciate the recorded cell viability for every entry that follows.
Express it in %; write the number only.

cell viability in this record for C[C@@H]1O[C@@H](O[C@H]2[C@H](Oc3cc(O)c4c(c3)O[C@H](c3ccc(O)cc3)CC4=O)O[C@H](CO)[C@@H](O)[C@@H]2O)[C@H](O)[C@H](O)[C@H]1O [Naringin (Naringoside)] : 111

Summary for this molecule, Oc1ccc2c(c1)OC[C@H]1c3cc4c(cc3O[C@@H]21)OCO4 : cell viability is 79.4

Input COC1(c2sc3c(N4CCOCC4)nc(-c4cnc(N)nc4)nc3c2C)COC1 . Output cell viability: 40.3

Entry COC(=O)[C@@H]1[C@H]2C[C@H]3c4[nH]c5ccccc5c4CCN3C[C@@H]2CC[C@@H]1O [Yohimbine hydrochloride (Antagonil)] — recorded cell viability = 96.5

Just so you know, measured cell viability for COC1=C(OC)C(=O)C(CCCCCCCCCCO)=C(C)C1=O came out at 86.9

Notebook: CC(=O)OCC(=O)[C@@]1(O)CC[C@H]2[C@@H]3CCC4=CC(=O)CC[C@]4(C)[C@H]3C(=O)C[C@@]21C [Cortisone acetate (Cortone)] , cell viability read as 118

The molecule listed as CC(C)COc1ccc(CNC(=O)N(Cc2ccc(F)cc2)C2CCN(C)CC2)cc1 shows cell viability equal to 0.75
